Target: Integrin alpha-5/beta-1 (Homo sapiens, UniProt P05556+P08648)
Sequence (P05556 21-798 limits assumed): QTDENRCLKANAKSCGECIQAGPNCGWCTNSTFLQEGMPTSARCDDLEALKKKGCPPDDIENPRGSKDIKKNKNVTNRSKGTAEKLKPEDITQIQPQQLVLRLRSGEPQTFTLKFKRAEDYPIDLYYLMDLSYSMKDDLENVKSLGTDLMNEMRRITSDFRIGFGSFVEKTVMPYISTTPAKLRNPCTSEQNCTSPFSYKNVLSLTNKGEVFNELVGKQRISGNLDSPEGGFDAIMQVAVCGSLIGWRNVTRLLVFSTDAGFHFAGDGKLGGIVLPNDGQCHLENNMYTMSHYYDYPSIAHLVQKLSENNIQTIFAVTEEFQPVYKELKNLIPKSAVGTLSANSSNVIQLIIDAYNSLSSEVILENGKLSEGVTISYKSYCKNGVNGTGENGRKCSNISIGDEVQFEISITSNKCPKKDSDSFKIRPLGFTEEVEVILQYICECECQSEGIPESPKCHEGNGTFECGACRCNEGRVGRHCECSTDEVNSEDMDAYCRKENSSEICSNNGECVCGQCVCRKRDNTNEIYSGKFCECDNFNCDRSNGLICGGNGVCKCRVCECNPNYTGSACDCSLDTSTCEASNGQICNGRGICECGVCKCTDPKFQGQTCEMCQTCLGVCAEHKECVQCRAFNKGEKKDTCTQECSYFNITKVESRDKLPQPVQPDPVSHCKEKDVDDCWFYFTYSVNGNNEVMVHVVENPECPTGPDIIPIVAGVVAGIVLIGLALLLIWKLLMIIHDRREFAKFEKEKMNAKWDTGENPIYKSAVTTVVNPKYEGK
Sequence (P08648 42-894 limits assumed): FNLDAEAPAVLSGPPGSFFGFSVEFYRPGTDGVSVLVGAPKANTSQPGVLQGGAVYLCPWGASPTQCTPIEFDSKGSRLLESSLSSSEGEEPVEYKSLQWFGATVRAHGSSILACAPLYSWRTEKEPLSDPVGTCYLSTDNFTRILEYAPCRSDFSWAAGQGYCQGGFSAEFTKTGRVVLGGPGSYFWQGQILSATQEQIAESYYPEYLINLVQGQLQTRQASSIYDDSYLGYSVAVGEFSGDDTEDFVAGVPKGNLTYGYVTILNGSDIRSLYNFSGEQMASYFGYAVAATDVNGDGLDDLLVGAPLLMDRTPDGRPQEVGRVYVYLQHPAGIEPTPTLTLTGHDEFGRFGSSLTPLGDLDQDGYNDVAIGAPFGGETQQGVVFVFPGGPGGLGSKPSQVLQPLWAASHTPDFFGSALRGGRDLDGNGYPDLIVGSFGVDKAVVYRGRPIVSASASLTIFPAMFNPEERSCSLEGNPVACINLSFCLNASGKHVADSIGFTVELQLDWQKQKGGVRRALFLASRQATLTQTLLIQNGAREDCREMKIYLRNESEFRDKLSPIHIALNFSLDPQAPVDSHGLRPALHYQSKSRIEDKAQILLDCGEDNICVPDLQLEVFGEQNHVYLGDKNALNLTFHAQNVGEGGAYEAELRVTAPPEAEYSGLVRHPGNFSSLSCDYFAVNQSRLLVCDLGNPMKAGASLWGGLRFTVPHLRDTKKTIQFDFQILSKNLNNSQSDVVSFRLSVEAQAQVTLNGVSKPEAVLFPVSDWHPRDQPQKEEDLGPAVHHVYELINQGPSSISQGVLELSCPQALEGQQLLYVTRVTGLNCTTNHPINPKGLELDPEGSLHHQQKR
Sequence (P08648 895-1049 limits assumed): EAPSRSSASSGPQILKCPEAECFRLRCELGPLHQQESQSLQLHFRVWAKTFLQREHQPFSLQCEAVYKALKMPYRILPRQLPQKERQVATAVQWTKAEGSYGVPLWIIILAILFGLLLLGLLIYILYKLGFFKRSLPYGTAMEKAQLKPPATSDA
Assay: Antagonist activity at integrin alpha5beta1 in human A375M cells assessed as inhibition of cell adhesion to fibronectin in presence of Mg2+ and MK-0429
Type: functional, cell-based
readout-name: pIC50
Scale note: pIC50 = -log10(concentration in M).

// below: answered compounds
O=C(N[C@@H](Cc1ccc(OCCc2ccc3c(n2)NCCO3)cc1)C(=O)O)c1c(Cl)cccc1Cl ... 6.89
Cc1cc(C)c(C(=O)N[C@@H](CNC(=O)CO[C@@H]2C[C@@H](CNc3ccccn3)N(C(=O)OCc3ccccc3)C2)C(=O)O)c(C)c1 ... 6.70
O=C(NCc1ccc2c(n1)NCCC2)c1ccc(C[C@H](NC(=O)c2c(Cl)cccc2Cl)C(=O)O)cc1 ... 5.85
CN1CCNc2nc(CCOc3ccc(C[C@H](NC(=O)c4c(Cl)cccc4Cl)C(=O)O)cc3)ccc21 ... 6.82

Report value: pIC50, system: Integrin alpha-5/beta-1 (Homo sapiens, UniProt P05556+P08648), compound: O=C(Cc1ccc2c(n1)NCCC2)Nc1ccc(C[C@H](NC(=O)c2c(Cl)cccc2Cl)C(=O)O)cc1
6.68
